Recorded values, source paper PMC6254359.

B1: Trim5α from Rhesus macaque, Bbox coiled-coil regions, residues 88–296 with the mutation [Rhesus macaque] / GABARAPL1 [not stated] (parent)
chain 1: PEEGQKVDHCARHGEKLLLFCQEDSKVICWLCKDSQEHRGHHTFLMEEVAQEYHVKLQTALEMLRQKQQEAEKLEADIREEKASWKIQIDYDKTNVSADFEQLREILDWEESNELQNLEKEEEDILKSLTKSETEMVQQTQYMRELISELEHRLQGSMMDLLQGVDGIIKRIENMTLKKPKTFHKNQRRVFRAPDLKGMLDMFRELTDA
chain 2: not shown

variants of: B1; experiment: SV-AUC c(s) analysis; conditions: with GABARAPL1; equal concentration of 20 μm; read off a plot

Var	screen value / S
chain 1 E119A	3
chain 1 Q116A	3
chain 1 S112A	3
chain 1 Q102A	3.1
chain 1 E119K	2.9
chain 1 E105A	2.9
chain 1 E111K	2.9
chain 1 E110A	3
chain 1 E105K	2.8
